- protocol: Tmax in monkey plasma at 5 mg/kg, po measured up to 24 hrs by LC-MS/MS analysis
- Assay type: ADME, organism-based, Macaca mulatta
- conditionSet: rhesus monkey
experimentalReadout: Tmax (h)
Give your result in h as a bare value.

Task item: Record request: Tmax value, item `CC(C)(C)c1cc(NC(=O)Nc2ccc(C#Cc3ccc(OCCCN4CCOCC4)cc3)cc2)no1`
Reply: 4

###

- protocol: AUC last in dog plasma at 5 mg/kg, po measured up to 24 hrs by LC-MS/MS analysis
- Assay type: ADME, organism-based, Canis lupus familiaris
experimentalReadout: AUC(0-t) at 24 h (ng·h/mL)
Write it as a number; the unit ng·h/mL goes unstated.

Task item: Sample `CC(C)(C)c1cc(NC(=O)Nc2ccc(C#Cc3ccc(OCCCN4CCOCC4)cc3)cc2)no1` — what was its AUC(0-t) at 24 h?
Reply: 4870
